Field: melting point. Provide a value for each of the molecules that follow.

Consider the molecule CCCCCCCCCCCCc1ccc2c(c1)C(=O)c1ccccc1C2=O and give its measured melting point. 99 to 105 °C

Consider the molecule CCC1CC(C)(C)Oc2c1cc(C(C)=O)c(O)c2C (stereo not given) and give its measured melting point. 92 to 93 °C

Consider the molecule COc1ccc(-c2cnc(S(C)(=O)=O)nc2)cc1OC1CCCC1 and give its measured melting point. 188 to 190 °C

Consider the molecule CO[C@H](C(=O)O)c1cccc([N+](=O)[O-])c1 and give its measured melting point. 112 °C

Consider the molecule CNC(=O)N1C(=S)C2(CCCCC2)NC12CCCCC2 and give its measured melting point. 127 to 129 °C

Consider the molecule O=C1Nc2c(Cl)cc(Cl)cc2C12CCCC2 and give its measured melting point. 175 to 176 °C

Consider the molecule COc1cc(Br)c2nc(-c3ccc(OC)c(F)c3)cc(O)c2c1 and give its measured melting point. 200 to 201 °C

Consider the molecule CC(O)c1cccc(Nc2ccccc2C(=O)O)c1Cl (stereo not given) and give its measured melting point. 169 to 171 °C

Consider the molecule CC(C)n1nc(-c2sc(C(=O)NCc3ccccn3)nc2-c2ccccc2F)ccc1=O and give its measured melting point. 190 to 191 °C

Consider the molecule CN1Cc2c(C#CC3(O)CCC3)ncn2-c2ccc(F)cc2C1=O and give its measured melting point. 177 to 179 °C

Consider the molecule Cc1[nH]c(=O)c2c(N)c([N+](=O)[O-])ccc2c1C and give its measured melting point. > 300 °C

Consider the molecule NC(=O)N(O)CCNC(=O)c1ccccc1Oc1ccccc1 and give its measured melting point. 182 to 185 °C

Consider the molecule O=C(CBr)c1ccc(OCc2ccccc2)c(CCOCc2ccccc2)c1 and give its measured melting point. 53 to 56 °C

Consider the molecule CNc1cc(F)ccc1C(=O)Cc1nnnn1C and give its measured melting point. 132 to 134 °C

Consider the molecule CCOC(=O)c1cc(Nc2cccnc2)c(=O)n(CC)n1 and give its measured melting point. 166 to 167 °C

###

Field: melting point. Provide a value for each of the compounds that follow.

Consider the compound COc1ccc(C2C(C#N)=C(N)Oc3c2ccc2cccnc32)cc1OC (stereo unspecified) and give its measured melting point. 118 to 120 °C

Consider the compound Cc1cccc(OCC(=O)NCCO[N+](=O)[O-])c1 and give its measured melting point. 40 to 42 °C

Consider the compound COc1cc(NC(C)=O)cc(C(F)(F)F)c1 and give its measured melting point. 123 to 124 °C

Consider the compound Cc1cc(Cl)c(Cl)cc1C(=O)O and give its measured melting point. 176 to 178 °C

Consider the compound COC1(c2cc(F)cc(Sc3ccc(CONC(N)=O)cc3)c2)CCOCC1 and give its measured melting point. 104 to 105 °C

Consider the compound COCc1nc2cccc(C(=O)O)c2n1Cc1ccc(-c2ccccc2-c2nnn[nH]2)cc1 and give its measured melting point. 272 to 274 °C

Consider the compound Oc1ccc(Cc2ccccc2)c2c1NCCC2 and give its measured melting point. 135 to 136 °C

Consider the compound O=C(O)C(=O)Nc1ccc2c(=O)n3c(nc2c1)C(=Cc1ccccc1)CC3 and give its measured melting point. 198 to 200 °C

Consider the compound COC(=O)c1cc(O)c2cc(N3CCOCC3)ccc2c1 and give its measured melting point. 231 to 234 °C

Consider the compound CN(CCOc1ccc(C(N)=O)cc1)CCc1ccc(NS(C)(=O)=O)cc1 and give its measured melting point. 147 °C

Consider the compound O=[N+]([O-])c1ccc2[nH]c(/C=C/c3ccoc3)nc2c1 and give its measured melting point. 230 to 233 °C

###

MEASUREMENT_TYPE: melting point

Consider the compound N#CCCSC1C2=C(CCCC2)C(=O)N1c1ccc(Cl)cc1F (stereo not drawn) and give its measured melting point. 101 to 103 °C

Consider the compound CCOC(=O)c1cc(=O)c2c(C)c(Cl)c(C)cc2o1 and give its measured melting point. 114 to 116 °C

Consider the compound CC(c1ccc(-c2ccccc2)c(F)c1)c1csc(NC(=S)Nc2ccccc2)n1 (stereo not drawn) and give its measured melting point. 176 to 177 °C

###

Field: melting point. Provide a value for each of the molecules that follow.

Consider the molecule O=C(c1cccc(F)c1)N1CCC2(CCn3c(nc(-c4ccncn4)cc3=O)N2)C1 (stereo not drawn) and give its measured melting point. 296 to 298 °C

Consider the molecule CCCOc1ccccc1-c1nc(-c2nnn[nH]2)cc(=O)[nH]1 and give its measured melting point. 219 to 221 °C

Consider the molecule NC(=O)c1c[nH]cc1-c1cccc(Cl)c1Cl and give its measured melting point. 185 to 190 °C

Consider the molecule CCCC(=O)c1cnc2c(OC)cccc2c1Nc1ccc(OC(=O)CC)cc1C and give its measured melting point. 163 to 165 °C

Consider the molecule CCOC(=O)C1C=Nc2c(cccc2[N+](=O)[O-])C1=O (stereo not drawn) and give its measured melting point. 241 to 243 °C

Consider the molecule Cc1ccccc1-c1c(C(=O)O)oc2ccc(Cl)cc12 and give its measured melting point. 212 to 214 °C

Consider the molecule COC(=O)CCn1c(C(=O)OCc2ccccc2)cc2c(C)c(C)c(OC)cc21 and give its measured melting point. 198 °C

Consider the molecule CCCCN=C(CS(C)=O)c1ccccc1O (stereo not drawn) and give its measured melting point. 128 to 129 °C

###

Field: melting point. Provide a value for each of the compounds that follow.

Consider the compound CCN(CC)C(=CC1=NCCCC1)c1ccccc1 and give its measured melting point. 169 to 170 °C

Consider the compound Clc1ccc(OCc2ccccc2)c(C=Cc2ccccn2)c1 and give its measured melting point. 105 to 106 °C

Consider the compound CC(C)C1(C)C(=O)N=C2c3ccccc3C(=O)N21 (stereo unspecified) and give its measured melting point. 98 to 100 °C

Consider the compound Cc1cc(NS(=O)(=O)c2ccccc2)cc(C)c1SC[N+](=O)[O-] and give its measured melting point. 146 to 148 °C

Consider the compound CC(=O)Nc1ccccc1CSc1nc2ccccc2[nH]1 and give its measured melting point. 218 to 222 °C

Consider the compound Cc1occc1C(=S)Nc1ccc(Cl)c(C=NN2CCOCC2)c1 and give its measured melting point. 142 to 143 °C

###

Field: melting point. Provide a value for each of the molecules that follow.

Consider the molecule CCOC(=O)c1ccc(CNc2ccncc2[N+](=O)[O-])cc1 and give its measured melting point. 166 to 168 °C

Consider the molecule O=c1[nH]c2cc([N+](=O)[O-])ccc2n(Cc2ccc(P(=O)(O)O)cc2)c1=O and give its measured melting point. 253 to 265 °C

Consider the molecule CC(C)[C@H](N)C(=O)N[C@@H](Cc1ccccc1)C(O)[C@H](Cc1ccccc1)NC(=O)[C@@H](N)C(C)C and give its measured melting point. 131 to 132 °C

Consider the molecule COc1cc2c(cc1Nc1ncc(Cl)c(N[C@H]3[C@@H](C(N)=O)[C@@H]4C=C[C@H]3C4)n1)CCN(CC(=O)N1CCN(C)CC1)CC2 and give its measured melting point. 190 °C

Consider the molecule CCC(C(=O)C(C)C(O)C(C)CCc1c(N)cc(C)c(O)c1C(=O)O)C1OC(CC)(C2CCC(O)(CC)C(C)O2)CC1C (stereo unspecified) and give its measured melting point. 223 to 225 °C

Consider the molecule COc1ccc2c(c1)C(=O)c1cccc(OC(C)C)c1-2 and give its measured melting point. 89 to 90 °C

Consider the molecule Fc1ccc2nc(-c3ccccc3)cc(Cl)c2c1 and give its measured melting point. 96 to 99 °C

Consider the molecule CCN(CC)CCCCCCCCNc1nc(N)nc(-c2cc(Cl)ccc2Cl)n1 and give its measured melting point. 101 to 102 °C

Consider the molecule CCc1nn(C)c2c1C(c1ccccc1)=NCC(C(=NO)C(=O)OC)=N2 and give its measured melting point. 225 to 227 °C

Consider the molecule CCCN(C(=O)OCC(C)C)C1Cc2ccc(C3=NNC(=O)CC3)cc2C1 (stereo unspecified) and give its measured melting point. 161 to 162 °C

Consider the molecule Cn1c(=O)c(Oc2ccccc2F)cc2cnc(S(C)(=O)=O)nc21 and give its measured melting point. 158 to 162 °C

Consider the molecule O=C1Nc2ccccc2C(c2ccccc2)=NC1NC(=S)c1cccc(C(F)(F)F)c1 (racemic) and give its measured melting point. 230 to 232 °C

Consider the molecule COC(=O)c1nc2nc(COC(C)=O)cc(Cl)n2n1 and give its measured melting point. 120 °C

Consider the molecule O=c1[nH]cnc2c(Br)sc(Br)c12 and give its measured melting point. > 250 °C

Consider the molecule O=C(NC(NC(=S)Nc1ccccc1)C(F)(F)F)c1ccc(Cl)cc1 (stereo unspecified) and give its measured melting point. 198 to 201 °C

Consider the molecule COc1ccc(F)cc1OCCCl and give its measured melting point. 35 to 38 °C

Consider the molecule COc1cc2c(cc1OCc1ccccc1)CCN(Cc1cccc(OC)c1OC)C2 and give its measured melting point. 106 to 107 °C

Consider the molecule COc1ccc(-c2csc(CC(=O)O)n2)cc1OC1CC2CCC1C2 (stereo unspecified) and give its measured melting point. 190 to 191 °C

Consider the molecule CC(=N)Nc1cccc(F)c1 and give its measured melting point. 175 to 177 °C

Consider the molecule CCc1ccc2cc(C3(Cn4ccnc4)OCCO3)ccc2c1 and give its measured melting point. 251 °C

Consider the molecule OC/C=C/CC/C=C/CC/C=C/CO and give its measured melting point. 37 to 38 °C

Consider the molecule O=C(O)Cc1ccc(OCCNC(=O)C2Cc3ccccc3N2S(=O)(=O)c2ccc(-c3cccc(C(F)(F)F)c3)c(F)c2)cc1 (stereo unspecified) and give its measured melting point. 82 °C

Consider the molecule COc1ccc(CN(C)CCCOc2ccc(NC(=O)c3cccc4c(=O)c5ccccc5[nH]c34)c(C)c2)cc1OC and give its measured melting point. 145 to 150 °C

Consider the molecule CC(=O)N1CCC(O)(Cn2nc(-c3c(-c4ccccc4)nn4ccccc34)ccc2=O)CC1 and give its measured melting point. 163 to 165 °C

Consider the molecule CCOC(=O)CCNCC(O)COc1cccc(C)c1 (stereo unspecified) and give its measured melting point. 57 °C

Consider the molecule O=C(Nc1cc(C(F)(F)F)nc(C(F)(F)F)c1)C(=O)Nc1cc(C(F)(F)F)nc(C(F)(F)F)c1 and give its measured melting point. 271 to 272 °C

// data source = a melting point compilation (Tetko et al.; mined from patent text by program, amines drawn as free bases though some values may be those of a salt)
